# assay-procedure: Aqueous solubility of the compound
# Assay type: physicochemical
# reported-conditions: water
measured-attribute: solubility

Look at this compound and give its reported solubility. COc1cccc2c1C(=O)c1c(O)c3c(c(O)c1C2=O)C[C@@](O)(C(C)=O)C[C@@H]3O[C@H]1C[C@H](N(Cc2ccccc2)Cc2ccccc2)[C@H](O)[C@H](C)O1.Cl 200 µg/mL

* * *

# Test system: L1210
# assay-procedure: Selectivity ratio of ED50 for inhibition of DNA synthesis in mouse L1210 cells to ED50 for inhibition of RNA synthesis in mouse L1210 cells
# Assay type: functional
measured-attribute: Ratio ED50

Look at this molecule and give its reported Ratio ED50. CCCCCCCCCCN(CCCCCCCCCC)[C@H]1C[C@H](O[C@H]2C[C@](O)(C(C)=O)Cc3c(O)c4c(c(O)c32)C(=O)c2c(OC)cccc2C4=O)O[C@@H](C)[C@H]1O.Cl 2.1

How about COc1cccc2c1C(=O)c1c(O)c3c(c(O)c1C2=O)C[C@@](O)(C(C)=O)C[C@@H]3O[C@H]1C[C@H](N(C)C)[C@H](O)[C@H](C)O1.Cl ? 10.4

How about COc1cccc2c1C(=O)c1c(O)c3c(c(O)c1C2=O)C[C@@](O)(C(C)=O)C[C@@H]3O[C@H]1C[C@H](NC(C)C)[C@H](O)[C@H](C)O1.Cl ? 3.4

* * *

Please respond with reported Activity for every item in the list.
# Tested on: Salmonella typhimurium
# assay-procedure: Mutagenicity in Salmonella typhimurium TA98 assessed as number of revertants by Ames test in presence of microsomal activation
# Format: toxicity, organism-based
# reported-conditions: salmonella enterica subsp. enterica serovar typhimurium
The reply should be a number in nmol⁻¹, with the unit left off.

Look at this compound and give its reported Activity. COc1cccc2c1C(=O)c1c(O)c3c(c(O)c1C2=O)C[C@@](O)(C(C)=O)C[C@@H]3O[C@H]1C[C@H](NCc2ccccc2)[C@H](O)[C@H](C)O1.Cl 0.5

How about COc1cccc2c1C(=O)c1c(O)c3c(c(O)c1C2=O)C[C@@](O)(C(C)=O)C[C@@H]3O[C@H]1C[C@H](N(C)C)[C@H](O)[C@H](C)O1.Cl ? 0

How about COc1cccc2c1C(=O)c1c(O)c3c(c(O)c1C2=O)C[C@@](O)(C(C)=O)C[C@@H]3O[C@H]1C[C@H](N(Cc2ccccc2)Cc2ccccc2)[C@H](O)[C@H](C)O1.Cl ? 0.5

* * *

# Species: Rattus norvegicus
# assay-procedure: Cardiotoxicity in rat assessed as minimum cumulative cardiotoxic dose by Zbinden test
# Type: toxicity, organism-based
# reported-conditions: in vivo
measured-attribute: MTC (mg/kg)
The reply should be a number in mg/kg, with the unit left off.

Look at this molecule and give its reported MTC. COc1cccc2c1C(=O)c1c(O)c3c(c(O)c1C2=O)C[C@@](O)(C(=O)CO)C[C@@H]3O[C@H]1C[C@H](N(C)C)[C@H](O)[C@H](C)O1.Cl 6

How about COc1cccc2c1C(=O)c1c(O)c3c(c(O)c1C2=O)C[C@@](O)(C(C)=O)C[C@@H]3O[C@H]1C[C@H](N(Cc2ccccc2)Cc2ccccc2)[C@H](O)[C@H](C)O1.Cl ? 125

How about COc1cccc2c1C(=O)c1c(O)c3c(c(O)c1C2=O)C[C@@](O)(C(C)=O)C[C@@H]3O[C@H]1C[C@H](N)[C@H](O)[C@H](C)O1 ? 14

How about COc1cccc2c1C(=O)c1c(O)c3c(c(O)c1C2=O)C[C@@](O)(C(=O)CO)C[C@@H]3O[C@H]1C[C@H](N)[C@H](O)[C@H](C)O1 ? 11

How about COc1cccc2c1C(=O)c1c(O)c3c(c(O)c1C2=O)C[C@@](O)(C(C)=O)C[C@@H]3O[C@H]1C[C@H](N(C)C)[C@H](O)[C@H](C)O1.Cl ? 11

* * *

Please respond with reported ΔTm for every item in the list.
# System: Calf thymus DNA
# assay-procedure: Binding affinity to calf thymus DNA assessed as change in melting temperature
# Assay type: nucleic-acid assay
# reported-conditions: Bos taurus
The reply should be a number in °C, with the unit left off.

Request: ΔTm, test system Calf thymus DNA, entry CCN(CC)[C@H]1C[C@H](O[C@H]2C[C@](O)(C(=O)CO)Cc3c(O)c4c(c(O)c32)C(=O)c2c(OC)cccc2C4=O)O[C@@H](C)[C@H]1O.Cl 14.6

How about CCCCCCCCCCN[C@H]1C[C@H](O[C@H]2C[C@](O)(C(C)=O)Cc3c(O)c4c(c(O)c32)C(=O)c2c(OC)cccc2C4=O)O[C@@H](C)[C@H]1O.Cl ? 7

How about COc1cccc2c1C(=O)c1c(O)c3c(c(O)c1C2=O)C[C@@](O)(C(=O)CO)C[C@@H]3O[C@H]1C[C@H](N)[C@H](O)[C@H](C)O1 ? 13.4

How about COc1cccc2c1C(=O)c1c(O)c3c(c(O)c1C2=O)C[C@@](O)(C(C)O)C[C@@H]3O[C@H]1C[C@H](N(Cc2ccccc2)Cc2ccccc2)[C@H](O)[C@H](C)O1.Cl (stereo partly specified) ? 0.6

How about CCCCCCCCCCN(CCCCCCCCCC)[C@H]1C[C@H](O[C@H]2C[C@](O)(C(C)=O)Cc3c(O)c4c(c(O)c32)C(=O)c2c(OC)cccc2C4=O)O[C@@H](C)[C@H]1O.Cl ? 0.1

How about COc1cccc2c1C(=O)c1c(O)c3c(c(O)c1C2=O)C[C@@](O)(C(O)CO)C[C@@H]3O[C@H]1C[C@H](N2CCCCC2)[C@H](O)[C@H](C)O1.Cl (stereo partly specified) ? 12.5

How about COc1cccc2c1C(=O)c1c(O)c3c(c(O)c1C2=O)C[C@@](O)(C(=O)CO)C[C@@H]3O[C@H]1C[C@H](N2CCCCC2)[C@H](O)[C@H](C)O1.Cl ? 15.4

How about COc1cccc2c1C(=O)c1c(O)c3c(c(O)c1C2=O)C[C@@](O)(C(C)=O)C[C@@H]3O[C@H]1C[C@H](NCc2ccccc2)[C@H](O)[C@H](C)O1.Cl ? 10.2

How about COc1cccc2c1C(=O)c1c(O)c3c(c(O)c1C2=O)C[C@@](O)(C(=O)CO)C[C@@H]3O[C@H]1C[C@H](N(C)C)[C@H](O)[C@H](C)O1.Cl ? 17.5

How about COc1cccc2c1C(=O)c1c(O)c3c(c(O)c1C2=O)C[C@@](O)(C(C)=O)C[C@@H]3O[C@H]1C[C@H](N(Cc2ccccc2)Cc2ccccc2)[C@H](O)[C@H](C)O1.Cl ? 1.35

How about COc1cccc2c1C(=O)c1c(O)c3c(c(O)c1C2=O)C[C@@](O)(C(C)O)C[C@@H]3O[C@H]1C[C@H](NCc2ccccc2)[C@H](O)[C@H](C)O1.Cl (stereo partly specified) ? 6.25

* * *

# Tested on: Calf thymus DNA
# assay-procedure: Binding affinity to calf thymus DNA assessed as change in melting temperature
# Assay type: nucleic-acid assay
# reported-conditions: Bos taurus
Lab note - cut at 10 °C for ΔTm: Met if strictly below, Not met if not.

Given COc1cccc2c1C(=O)c1c(O)c3c(c(O)c1C2=O)C[C@@](O)(C(O)CO)C[C@@H]3O[C@H]1C[C@H](NCc2ccccc2)[C@H](O)[C@H](C)O1.Cl (stereo not given in full) , is recorded ΔTm strictly lower than 10 °C? Met

How about COc1cccc2c1C(=O)c1c(O)c3c(c(O)c1C2=O)C[C@@](O)(C(C)=O)C[C@@H]3O[C@H]1C[C@H](NC(C)C)[C@H](O)[C@H](C)O1.Cl ? Not met

How about CCN(CC)[C@H]1C[C@H](O[C@H]2C[C@](O)(C(C)=O)Cc3c(O)c4c(c(O)c32)C(=O)c2c(OC)cccc2C4=O)O[C@@H](C)[C@H]1O.Cl ? Not met

How about COc1cccc2c1C(=O)c1c(O)c3c(c(O)c1C2=O)C[C@@](O)(C(=O)CO)C[C@@H]3O[C@H]1C[C@H](NCc2ccccc2)[C@H](O)[C@H](C)O1.Cl ? Not met

How about COc1cccc2c1C(=O)c1c(O)c3c(c(O)c1C2=O)C[C@@](O)(C(=O)CO)C[C@@H]3O[C@H]1C[C@H](N(Cc2ccccc2)Cc2ccccc2)[C@H](O)[C@H](C)O1.Cl ? Met

* * *

# System: Salmonella typhimurium
# assay-procedure: Toxicity in Salmonella typhimurium TA98 assessed as concentration required to cause mortality per plate
# Assay type: organism-based
# reported-conditions: salmonella enterica subsp. enterica serovar typhimurium
Please respond with reported Activity for every item in the list.
The reply should be a number in µg, with the unit left off.

Request: Activity, test system Salmonella typhimurium, entry COc1cccc2c1C(=O)c1c(O)c3c(c(O)c1C2=O)C[C@@](O)(C(C)=O)C[C@@H]3O[C@H]1C[C@H](N(C)C)[C@H](O)[C@H](C)O1.Cl 20

How about COc1cccc2c1C(=O)c1c(O)c3c(c(O)c1C2=O)C[C@@](O)(C(=O)CO)C[C@@H]3O[C@H]1C[C@H](N(C)C)[C@H](O)[C@H](C)O1.Cl ? 20

How about COc1cccc2c1C(=O)c1c(O)c3c(c(O)c1C2=O)C[C@@](O)(C(=O)CO)C[C@@H]3O[C@H]1C[C@H](N2CCCCC2)[C@H](O)[C@H](C)O1.Cl ? 20

How about COc1cccc2c1C(=O)c1c(O)c3c(c(O)c1C2=O)C[C@@](O)(C(C)=O)C[C@@H]3O[C@H]1C[C@H](N)[C@H](O)[C@H](C)O1 ? 5
